Test system: clinical strains of Serratia marcescens
procedureSummary: MIC, microdilution, clinical strains
Type: cell-based
conditionLabel: Serratia marcescens strain 1, Muller Hinton broth-cation adjusted, 0.02% BSA, 0.2% acetic acid
Where a SMILES comes first, the peptide text is derived from it. [ ]: non-standard residue; d: D form.
outcomeMeasure: Minimum inhibitory concentration

Before answering, review these 3 worked examples.
compound	systemTested	result
CC(C)C[C@@H](NC(=O)[C@@H](CCCCN)NC(=O)[C@@H](Cc1c[nH]c2ccccc12)NC(=O)[C@@H](CCCCN)NC(=O)[C@@H](C)NC(=O)[C@@H](Cc1c[nH]cn1)NC(=O)[C@@H](CC(C)C)NC(=O)[C@@H](CCCNC(=N)N)NC(=O)[C@@H](Cc1c[nH]c2ccccc12)NC(=O)[C@H](N)Cc1c[nH]c2ccccc12)C(=O)N[C@H](Cc1c[nH]c2ccccc12)C(=O)O [Chain109D] (H-[dW][dW][dR][dL][dH][dA][dK][dW][dK][dL][dW]-OH)	clinical strains of Serratia marcescens	>128
CC(C)C[C@@H](NC(=O)[C@@H](CCCCN)NC(=O)[C@@H](CCCCN)NC(=O)[C@@H](Cc1ccccc1)NC(=O)[C@@H](CC(C)C)NC(=O)[C@@H](Cc1c[nH]c2ccccc12)NC(=O)[C@@H](CCCNC(=N)N)NC(=O)[C@@H](Cc1c[nH]c2ccccc12)NC(=O)[C@@H](CCCCN)NC(=O)[C@@H](CCCNC(=N)N)NC(=O)[C@H](N)CCCCN)C(=O)O [Chain310D] (H-[dK][dR][dK][dW][dR][dW][dL][dF][dK][dK][dL]-OH)	clinical strains of Serratia marcescens	>128
CC[C@@H](C)[C@@H](NC(=O)[C@@H](Cc1c[nH]c2ccccc12)NC(=O)[C@H](N)CCCCN)C(=O)N[C@@H](C(=O)N[C@H](Cc1c[nH]c2ccccc12)C(=O)N[C@H](CCCNC(=N)N)C(=O)N[C@H](Cc1c[nH]c2ccccc12)C(=O)N[C@H](CCCNC(=N)N)C(=O)N[C@H](Cc1ccccc1)C(=O)N[C@H](CCCCN)C(=O)N[C@H](CCCNC(=N)N)C(=O)O)C(C)C [Chain201D] (H-[dK][dW][dI][dV][dW][dR][dW][dR][dF][dK][dR]-OH)	clinical strains of Serratia marcescens	64

Request: What does the data say about its Minimum inhibitory concentration? Entry: CC(C)C[C@@H](NC(=O)[C@H](N)CCCNC(=N)N)C(=O)N[C@H](CCCCN)C(=O)N[C@H](CCCNC(=N)N)C(=O)N[C@H](Cc1c[nH]c2ccccc12)C(=O)N[C@H](CCCNC(=N)N)C(=O)N[C@H](CC(C)C)C(=O)N[C@H](Cc1ccccc1)C(=O)N[C@H](CCCNC(=N)N)C(=O)N[C@H](CCCCN)C(=O)N[C@H](CCCNC(=N)N)C(=O)O [Chain306D] (H-[dR][dL][dK][dR][dW][dR][dL][dF][dR][dK][dR]-OH)
Result: >128

---

Test system: clinical strains of E. coli
procedureSummary: MIC, microdilution, clinical strains
Format: cell-based
conditionLabel: Escherichia coli strain 5; microdilution, Muller Hinton broth-cation adjusted, 0.02% BSA, 0.2% acetic acid
Where a SMILES comes first, the peptide text is derived from it. [ ]: non-standard residue; d: D form.
outcomeMeasure: Minimum inhibitory concentration
No unit in the answer, only the number.

compound	outcomeMeasure	numericReadout
CC(C)C[C@@H](NC(=O)[C@@H](CCCCN)NC(=O)[C@@H](CCCCN)NC(=O)[C@@H](Cc1ccccc1)NC(=O)[C@@H](CC(C)C)NC(=O)[C@@H](Cc1c[nH]c2ccccc12)NC(=O)[C@@H](CCCNC(=N)N)NC(=O)[C@@H](Cc1c[nH]c2ccccc12)NC(=O)[C@@H](CCCCN)NC(=O)[C@@H](CCCNC(=N)N)NC(=O)[C@H](N)CCCCN)C(=O)O [Chain310D] (H-[dK][dR][dK][dW][dR][dW][dL][dF][dK][dK][dL]-OH)	Minimum inhibitory concentration	16

We next turn to a different compound, shown below.
Request: What does the data say about its Minimum inhibitory concentration? Entry: CC[C@@H](C)[C@@H](NC(=O)[C@@H](Cc1c[nH]c2ccccc12)NC(=O)[C@H](N)CCCCN)C(=O)N[C@@H](C(=O)N[C@H](Cc1c[nH]c2ccccc12)C(=O)N[C@H](CCCNC(=N)N)C(=O)N[C@H](Cc1c[nH]c2ccccc12)C(=O)N[C@H](CCCNC(=N)N)C(=O)N[C@H](Cc1ccccc1)C(=O)N[C@H](CCCCN)C(=O)N[C@H](CCCNC(=N)N)C(=O)O)C(C)C [Chain201D] (H-[dK][dW][dI][dV][dW][dR][dW][dR][dF][dK][dR]-OH)
Result: 1
